Target: BRD4^BD1 (Homo sapiens, UniProt O60885)
Construct: to the isolated BD1 and BD2 domains of BRD2, BRD3 and BRD4
Experiment: competitive fluorescence polarization assay, BRD4 BD1 -/+ presenter protein
Assay type: binding
Settings: absence of FKBP12; 2 nM JQ1-FL tracer; read-out: Binding to BRD4^BD1 - FKBP12 Kd
pKd: −log10 of the molar value.
observed.property: pKd

>>> observed("Cc1sc2c(c1C)C(c1ccc(Cl)cc1)=NC(CC(=O)NCCOCCn1cc(COCC3CN(CC(=O)N4CCC(C)CC4)C(=O)C4CCCC3N4S(=O)(=O)c3cc(Cl)cc(Cl)c3)nn1)c1nnc(C)n1-2 (centres unmarked) [a1dk]")
6.28
>>> observed("Cc1sc2c(c1C)C(c1ccc(Cl)cc1)=NC(CC(=O)N1CCC(N3CCC(n4cc(C5CN(Cc6ccccn6)C(=O)C6CCCC5N6S(=O)(=O)c5cc(Cl)cc(Cl)c5)nn4)CC3)CC1)c1nnc(C)n1-2 (centres unmarked) [a9c]")
6.55
>>> observed("Cc1sc2c(c1C)C(c1ccc(Cl)cc1)=NC(CC(=O)NCCOCCn1cc(COC(C)C3CN(Cc4ccccn4)C(=O)C4CCCC3N4S(=O)(=O)c3cc(Cl)cc(Cl)c3)nn1)c1nnc(C)n1-2 (centres unmarked) [a1e]")
7.15
>>> observed("Cc1sc2c(c1C)C(c1ccc(Cl)cc1)=NC(CC(=O)N1CCC3(CC1)CC(n1cc(C4CN(Cc5ccccn5)C(=O)C5CCCC4N5S(=O)(=O)c4cc(Cl)cc(Cl)c4)nn1)C3)c1nnc(C)n1-2 (centres unmarked) [a13c]")
5.34
>>> observed("Cc1sc2c(c1C)C(c1ccc(C#CCNC(=O)COCCn3cc(COCC4CN(Cc5ccccn5)C(=O)C5CCCC4N5S(=O)(=O)c4cc(Cl)cc(Cl)c4)nn3)cc1)=NC(CC(=O)OC(C)(C)C)c1nnc(C)n1-2 (centres unmarked) [b3d]")
7.17

* * *

Target: BRD4 43-463 Y97A (Homo sapiens, UniProt O60885, Y97A)
Assay: competitive FP assay, BRD4 tandem construct Y97A
Format: binding
Conditions: Binding to BRD4 43-463 Y97A + FKBP12 Kd, 15 µM FKBP12
pKd: −log10 of the molar value.
Entries annotated with measured pKd
observed.property: pKd

>>> observed("Cc1sc2c(c1C)C(c1ccc(Cl)cc1)=NC(CC(=O)NCCOCCn1cc(COCC3CN(C(C)c4ccccn4)C(=O)C4CCCC3N4S(=O)(=O)c3cc(Cl)cc(Cl)c3)nn1)c1nnc(C)n1-2 (stereo not shown)")
7.08
>>> observed("Cc1sc2c(c1C)C(c1ccc(Cl)cc1)=NC(CC(=O)NCCOCCn1cc(COCC3CN(Cc4ccccn4)C(=O)C4CCCC3N4S(=O)(=O)c3cc(Cl)cc(Cl)c3)nn1)c1nnc(C)n1-2 (stereo not shown)")
7.23
>>> observed("Cc1sc2c(c1C)C(c1ccc(Cl)cc1)=NC(CC(=O)N1CCC3(CC1)CC(n1cc(C4CN(Cc5ccccn5)C(=O)C5CCCC4N5S(=O)(=O)c4cc(Cl)cc(Cl)c4)nn1)C3)c1nnc(C)n1-2 (stereo not shown) [a13c]")
6.17
>>> observed("Cc1sc2c(c1C)C(c1ccc(C#CCNC(=O)COCCn3cc(C4CN(Cc5ccccn5)C(=O)C5CCCC4N5S(=O)(=O)c4cc(Cl)cc(Cl)c4)nn3)cc1)=NC(CC(=O)OC(C)(C)C)c1nnc(C)n1-2 (stereo not shown)")
7.66

* * *

Target: BRD4^BD1 (Homo sapiens, UniProt O60885)
Construct: to the isolated BD1 and BD2 domains of BRD2, BRD3 and BRD4
Assay: competitive fluorescence polarization assay, BRD4 BD1 -/+ presenter protein
Assay type: binding
Details: absence of FKBP12; 2 nM JQ1-FL tracer; read-out: Binding to BRD4^BD1 - FKBP12 Kd
observed.property: Kd

>>> observed("Cc1sc2c(c1C)C(c1ccc(Cl)cc1)=NC(CC(=O)NCCOCCOCCn1cc(C3CN(Cc4ccccn4)C(=O)C4CCCC3N4S(=O)(=O)c3cc(Cl)cc(Cl)c3)nn1)c1nnc(C)n1-2 (centres unmarked)")
"440 nM"
>>> observed("Cc1sc2c(c1C)C(c1ccc(Cl)cc1)=NC(CC(=O)N1CCC(CN3CCC(Cn4cc(COCC5CN(Cc6ccccn6)C(=O)C6CCCC5N6S(=O)(=O)c5cc(Cl)cc(Cl)c5)nn4)CC3)CC1)c1nnc(C)n1-2 (centres unmarked)")
"160 nM"
>>> observed("Cc1sc2c(c1C)C(c1ccc(Cl)cc1)=NC(CC(=O)N1CCC(N3CCC(Cn4cc(COCC5CN(Cc6ccccn6)C(=O)C6CCCC5N6S(=O)(=O)c5cc(Cl)cc(Cl)c5)nn4)CC3)CC1)c1nnc(C)n1-2 (centres unmarked) [a10d]")
"140 nM"
>>> observed("Cc1sc2c(c1C)C(c1ccc(Cl)cc1)=NC(CC(=O)N1CCC(N3CCC(n4cc(COCC5CN(Cc6ccccn6)C(=O)C6CCCC5N6S(=O)(=O)c5cc(Cl)cc(Cl)c5)nn4)CC3)CC1)c1nnc(C)n1-2 (centres unmarked)")
"340 nM"
>>> observed("Cc1sc2c(c1C)C(c1ccc(C#CCNC(=O)COCCn3cc(C4CN(Cc5ccccn5)C(=O)C5CCCC4N5S(=O)(=O)c4cc(Cl)cc(Cl)c4)nn3)cc1)=NC(CC(=O)OC(C)(C)C)c1nnc(C)n1-2 (centres unmarked)")
"130 nM"

* * *

Target: BRD4^BD1 (Homo sapiens, UniProt O60885)
Construct: to the isolated BD1 and BD2 domains of BRD2, BRD3 and BRD4
Assay: competitive fluorescence polarization assay, BRD4 BD1 -/+ presenter protein
Assay type: binding
Settings: absence of FKBP12; 2 nM JQ1-FL tracer; read-out: Binding to BRD4^BD1 - FKBP12 Kd
pKd: −log10 of the molar value.
observed.property: pKd

>>> observed("Cc1sc2c(c1C)C(c1ccc(Cl)cc1)=NC(CC(=O)N1CCC(CN3CCC(Cn4cc(C5CN(Cc6ccccn6)C(=O)C6CCCC5N6S(=O)(=O)c5cc(Cl)cc(Cl)c5)nn4)CC3)CC1)c1nnc(C)n1-2 (stereo not drawn) [a8c]")
6.77
>>> observed("Cc1sc2c(c1C)C(c1ccc(Cl)cc1)=NC(CC(=O)N1CCC(CN3CCC(n4cc(COCC5CN(Cc6ccccn6)C(=O)C6CCCC5N6S(=O)(=O)c5cc(Cl)cc(Cl)c5)nn4)CC3)CC1)c1nnc(C)n1-2 (stereo not drawn) [a7d]")
6.17
>>> observed("Cc1sc2c(c1C)C(c1ccc(Cl)cc1)=NC(CC(=O)N1CCN(CCn3cc(COCC4CN(Cc5ccccn5)C(=O)C5CCCC4N5S(=O)(=O)c4cc(Cl)cc(Cl)c4)nn3)CC1)c1nnc(C)n1-2 (stereo not drawn) [a4d]")
6.30

* * *

Parameter: log10(Kd). Scope: all listed entries.
Biological target: BRD4^BD2 (Homo sapiens)
Construct: to the isolated BD1 and BD2 domains of BRD2, BRD3 and BRD4
Assay: competitive fluorescence polarization assay, BRD4 BD2 -/+ presenter protein
Type: binding
Settings: presence of 15 µM FKBP12; read-out: Binding to BRD4^BD2 + FKBP12 Kd (converted)
observed.property: log10(Kd) (log10 of the value in nM)

>>> observed("Cc1sc2c(c1C)C(c1ccc(C#CCNC(=O)COCCn3cc(C4CN(Cc5ccccn5)C(=O)C5CCCC4N5S(=O)(=O)c4cc(Cl)cc(Cl)c4)nn3)cc1)=NC(CC(=O)OC(C)(C)C)c1nnc(C)n1-2 (centres unmarked)")
1.11
>>> observed("Cc1sc2c(c1C)C(c1ccc(Cl)cc1)=NC(CC(=O)N1CC(CN3CCC(Cn4cc(COCC5CN(Cc6ccccn6)C(=O)C6CCCC5N6S(=O)(=O)c5cc(Cl)cc(Cl)c5)nn4)CC3)C1)c1nnc(C)n1-2 (centres unmarked) [a12d]")
2.77
>>> observed("Cc1sc2c(c1C)C(c1ccc(Cl)cc1)=NC(CC(=O)N1CCC3(CC1)CC(n1cc(C4CN(Cc5ccccn5)C(=O)C5CCCC4N5S(=O)(=O)c4cc(Cl)cc(Cl)c4)nn1)C3)c1nnc(C)n1-2 (centres unmarked) [a13c]")
3.28
>>> observed("Cc1sc2c(c1C)C(c1ccc(Cl)cc1)=NC(CC(=O)N1CCC(CN3CCC(Cn4cc(COCC5CN(Cc6ccccn6)C(=O)C6CCCC5N6S(=O)(=O)c5cc(Cl)cc(Cl)c5)nn4)CC3)CC1)c1nnc(C)n1-2 (centres unmarked)")
2.08
>>> observed("Cc1sc2c(c1C)C(c1ccc(Cl)cc1)=NC(CC(=O)N1CC(CN3CCC(n4cc(C5CN(Cc6ccccn6)C(=O)C6CCCC5N6S(=O)(=O)c5cc(Cl)cc(Cl)c5)nn4)CC3)C1)c1nnc(C)n1-2 (centres unmarked) [a11c]")
2.65
>>> observed("Cc1sc2c(c1C)C(c1ccc(Cl)cc1)=NC(CC(=O)N1CCC(N3CCC(n4cc(COCC5CN(Cc6ccccn6)C(=O)C6CCCC5N6S(=O)(=O)c5cc(Cl)cc(Cl)c5)nn4)CC3)CC1)c1nnc(C)n1-2 (centres unmarked)")
2.65
>>> observed("C=C[C@H]1CN(Cc2ccccn2)C(=O)[C@@H]2CCC[C@H]1N2S(=O)(=O)c1ccc(-c2cn(CCOCCOCCNC(=O)C[C@@H]3N=C(c4ccc(Cl)cc4)c4c(sc(C)c4C)-n4c(C)nnc43)nn2)c(Cl)c1")
3.11
>>> observed("Cc1sc2c(c1C)C(c1ccc(Cl)cc1)=NC(CC(=O)NCCOCCn1cc(COCC3CN(Cc4ccccn4)C(=O)C4CCCC3N4S(=O)(=O)c3cc(Cl)cc(Cl)c3)nn1)c1nnc(C)n1-2 (centres unmarked)")
1.85
>>> observed("Cc1sc2c(c1C)C(c1ccc(Cl)cc1)=NC(CC(=O)N1CCC(N3CCC(Cn4cc(COCC5CN(Cc6ccccn6)C(=O)C6CCCC5N6S(=O)(=O)c5cc(Cl)cc(Cl)c5)nn4)CC3)CC1)c1nnc(C)n1-2 (centres unmarked) [a10d]")
1.90
>>> observed("Cc1sc2c(c1C)C(c1ccc(Cl)cc1)=NC(CC(=O)NCCOCCn1cc(COCC3CN(CC(=O)N4CCC(C)CC4)C(=O)C4CCCC3N4S(=O)(=O)c3cc(Cl)cc(Cl)c3)nn1)c1nnc(C)n1-2 (centres unmarked)")
2.90
>>> observed("Cc1sc2c(c1C)C(c1ccc(Cl)cc1)=NC(CC(=O)N1CCC(N3CCC(n4cc(C5CN(Cc6ccccn6)C(=O)C6CCCC5N6S(=O)(=O)c5cc(Cl)cc(Cl)c5)nn4)CC3)CC1)c1nnc(C)n1-2 (centres unmarked)")
2.81
>>> observed("Cc1sc2c(c1C)C(c1ccc(Cl)cc1)=NC(CC(=O)NCCOCCn1cc(COC(C)C3CN(Cc4ccccn4)C(=O)C4CCCC3N4S(=O)(=O)c3cc(Cl)cc(Cl)c3)nn1)c1nnc(C)n1-2 (centres unmarked) [a1e]")
1.78
>>> observed("Cc1sc2c(c1C)C(c1ccc(Cl)cc1)=NC(CC(=O)N1CC(CN3CCC(n4cc(COCC5CN(Cc6ccccn6)C(=O)C6CCCC5N6S(=O)(=O)c5cc(Cl)cc(Cl)c5)nn4)CC3)C1)c1nnc(C)n1-2 (centres unmarked) [a11d]")
2.85
>>> observed("Cc1sc2c(c1C)C(c1ccc(Cl)cc1)=NC(CC(=O)N1CCN(CCCn3cc(COCC4CN(Cc5ccccn5)C(=O)C5CCCC4N5S(=O)(=O)c4cc(Cl)cc(Cl)c4)nn3)CC1)c1nnc(C)n1-2 (centres unmarked)")
2.78
>>> observed("Cc1sc2c(c1C)C(c1ccc(Cl)cc1)=NC(CC(=O)N1CCC(CN3CCC(n4cc(C5CN(Cc6ccccn6)C(=O)C6CCCC5N6S(=O)(=O)c5cc(Cl)cc(Cl)c5)nn4)CC3)CC1)c1nnc(C)n1-2 (centres unmarked)")
2.95
>>> observed("C=CC1CN(Cc2cn(CCOCCOCCNC(=O)CC3N=C(c4ccc(Cl)cc4)c4c(sc(C)c4C)-n4c(C)nnc43)nn2)C(=O)C2CCCC1N2S(=O)(=O)c1cc(Cl)cc(Cl)c1 (centres unmarked)")
2.98
>>> observed("Cc1sc2c(c1C)C(c1ccc(Cl)cc1)=NC(CC(=O)N1CCN(CCCCn3cc(COCC4CN(Cc5ccccn5)C(=O)C5CCCC4N5S(=O)(=O)c4cc(Cl)cc(Cl)c4)nn3)CC1)c1nnc(C)n1-2 (centres unmarked)")
2.90
>>> observed("Cc1sc2c(c1C)C(c1ccc(Cl)cc1)=NC(CC(=O)NCCOCCn1cc(COCC3CN(C(C)c4ccccn4)C(=O)C4CCCC3N4S(=O)(=O)c3cc(Cl)cc(Cl)c3)nn1)c1nnc(C)n1-2 (centres unmarked)")
1.95
>>> observed("Cc1sc2c(c1C)C(c1ccc(Cl)cc1)=NC(CC(=O)N1CCC(CN3CCC(n4cc(COCC5CN(Cc6ccccn6)C(=O)C6CCCC5N6S(=O)(=O)c5cc(Cl)cc(Cl)c5)nn4)CC3)CC1)c1nnc(C)n1-2 (centres unmarked)")
2.82
>>> observed("Cc1sc2c(c1C)C(c1ccc(Cl)cc1)=NC(CC(=O)N1CC(CN3CCC(Cn4cc(C5CN(Cc6ccccn6)C(=O)C6CCCC5N6S(=O)(=O)c5cc(Cl)cc(Cl)c5)nn4)CC3)C1)c1nnc(C)n1-2 (centres unmarked) [a12c]")
2.85
